B1: HDV Ribozyme (parent)
chain: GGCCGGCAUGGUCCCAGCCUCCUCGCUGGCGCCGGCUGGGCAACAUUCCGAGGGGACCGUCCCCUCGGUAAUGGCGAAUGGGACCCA

# Variants of: B1
# procedure.text: self-cleavage, relative activity (ratio to wild type); higher = more cleavage; co-transcriptional
reported.metric: self-cleavage
Respond using a number only.

Examples from the recorded data:
mutations: C58U G68A
self-cleavage: 0.855
//
mutations: C48U A87G
self-cleavage: 1.07
//
mutations: C61A A83G
self-cleavage: 0.997
//
mutations: C58A
self-cleavage: 1.02
//
mutations: U23C A51U
self-cleavage: 1.15
//
mutations: G10A G76C
self-cleavage: 0.772
//
mutations: C48G G52C
self-cleavage: 0.762
//
mutations: G17A C64A
self-cleavage: 0.645
//
mutations: G10A C26G
self-cleavage: 1.11
//
mutations: G6C C86A
self-cleavage: 0.482

Given G53C C64A , respond with its self-cleavage.
0.724

State its self-cleavage for this variant: G31U C49G
0.231

State, in one line, measured self-cleavage of G29U C85A
0.0941

Let me know recorded self-cleavage for C7U G17C , thanks.
0

Could you please provide reported self-cleavage for C41G G82C ? Thanks!
0.158

# return recorded self-cleavage for input C24A G34U
0.0831

Give self-cleavage for C24G G76A
0.101

Using the record for G40C U60A , state its measured self-cleavage.
0.25

Specify self-cleavage for C30G A45C and stop.
0.0997

Provide only the value of recorded self-cleavage for C14A G31U
0.148

State its self-cleavage for this variant: C24A U46G
0.554

Let me know recorded self-cleavage for C15U G29U , thanks.
0.0594

Give reported self-cleavage value for G50A C62A
0.694

Entry C33G C58U needs its self-cleavage filled in; supply it.
0.147

Quick one: give measured self-cleavage for G11C U37A
0

Look up self-cleavage of C3A G73A and report it.
0.152
